- Experimental System: L-arabinose isomerase (Bacillus amyloliquefaciens, UniProt A0A9P1JJ98)
- Construct: crude enzyme
- Sequence (A0A9P1JJ98 1-499): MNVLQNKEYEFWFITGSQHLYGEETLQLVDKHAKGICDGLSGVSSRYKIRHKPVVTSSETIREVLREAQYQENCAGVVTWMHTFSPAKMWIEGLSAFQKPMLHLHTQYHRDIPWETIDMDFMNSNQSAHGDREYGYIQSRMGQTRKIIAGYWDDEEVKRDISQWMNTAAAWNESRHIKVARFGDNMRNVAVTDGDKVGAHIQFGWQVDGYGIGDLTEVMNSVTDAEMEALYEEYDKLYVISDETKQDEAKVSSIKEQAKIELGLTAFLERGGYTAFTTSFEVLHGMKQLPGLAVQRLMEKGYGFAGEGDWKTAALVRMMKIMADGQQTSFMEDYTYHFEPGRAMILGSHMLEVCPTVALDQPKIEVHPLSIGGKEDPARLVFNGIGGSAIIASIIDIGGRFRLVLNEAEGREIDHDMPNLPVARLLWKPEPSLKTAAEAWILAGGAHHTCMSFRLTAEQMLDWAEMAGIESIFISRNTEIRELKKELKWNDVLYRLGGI
- Method Notes: L-arabinose isomerase bioconversion of D-galactose to D-tagatose, enzyme from Bacillus amyloliquefaciens IFO 3022
- Type: biochemical
- Measurement Conditions: 1.67 M D-galactose, 0.005 M metallic ion, 60° C., 120 min.
Recorded D-TAGATOSE by entry
Quantity Name: D-TAGATOSE (mM)

[[record]]
smiles_code = "[Zn+2]"
obs_value = 7

[[record]]
smiles_code = "[Fe+2]"
obs_value = 20

[[record]]
smiles_code = "[Mg]"
obs_value = 5

[[record]]
smiles_code = "[Co+2]"
obs_value = 5

[[record]]
smiles_code = "[Mn+2]"
obs_value = 35

[[record]]
smiles_code = "[Ca]"
obs_value = 9

[[record]]
smiles_code = "[Fe+3]"
obs_value = 18

